# Target under test: HIV-1 Env of isolate MGRM-D-008 (subtype D) (HIV-1)
# Experimental protocol: cell-based or functional assay
Metric name: IC50 (neutralization)

* PGT-130 (antibody, V domains shown) VH: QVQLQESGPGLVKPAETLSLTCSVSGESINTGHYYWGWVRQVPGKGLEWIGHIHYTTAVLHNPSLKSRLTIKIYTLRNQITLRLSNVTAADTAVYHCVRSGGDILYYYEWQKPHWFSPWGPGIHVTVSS VL: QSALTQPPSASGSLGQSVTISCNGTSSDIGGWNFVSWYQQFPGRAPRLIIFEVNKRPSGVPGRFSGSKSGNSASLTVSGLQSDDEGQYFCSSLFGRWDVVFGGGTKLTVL | > 50 µg/mL

-- ask Entry PGT-128 (antibody, V domains shown) VH: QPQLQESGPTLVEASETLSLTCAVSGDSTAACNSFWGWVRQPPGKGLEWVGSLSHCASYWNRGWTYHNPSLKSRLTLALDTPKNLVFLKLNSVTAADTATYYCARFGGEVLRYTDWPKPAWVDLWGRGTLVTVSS VL: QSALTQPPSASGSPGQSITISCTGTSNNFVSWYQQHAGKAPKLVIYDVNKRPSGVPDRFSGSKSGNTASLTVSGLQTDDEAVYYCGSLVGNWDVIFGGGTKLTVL needs its IC50 (neutralization) filled in; supply it.
-- reply 0.033 µg/mL

-- ask Let me know recorded IC50 (neutralization) for PGT-137 (antibody, V domains shown) VH: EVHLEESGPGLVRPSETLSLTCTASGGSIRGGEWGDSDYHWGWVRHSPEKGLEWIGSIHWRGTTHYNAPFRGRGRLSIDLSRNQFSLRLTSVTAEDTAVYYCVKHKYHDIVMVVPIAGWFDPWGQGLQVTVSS VL: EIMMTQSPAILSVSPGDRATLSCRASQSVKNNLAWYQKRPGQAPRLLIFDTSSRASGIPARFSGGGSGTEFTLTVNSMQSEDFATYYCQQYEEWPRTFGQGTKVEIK , thanks.
-- reply > 50 µg/mL
